# Tested on: methicillin-resistant Staphylococcus aureus subsp. aureus (MRSA) CCM 4750 (ATCC 43300)
# protocol text: microbe, parasite or virus in culture
# Type: cell-based
# run conditions: 24 h, read-out: MIC Methicillin-resistant Staphylococcus aureus subsp. aureus
observed property: MIC

molecule="O=C(Nc1ccc2c(c1)B(O)OC2)c1cscn1 [Compound 16]" observed="250 µM"
molecule="O=C(Nc1ccc2c(c1)B(O)OC2)c1ccc2ccccc2n1 [Compound 19]" observed="> 125 µM"
molecule="O=C(Nc1ccc2c(c1)B(O)OC2)c1ccc(C(F)(F)F)nc1 [Compound 12]" observed="> 500 µM"
molecule="O=C(Nc1ccc2c(c1)B(O)OC2)c1cnc2ccccc2n1 [Compound 17]" observed="> 500 µM"
molecule="O=C(Nc1ccc2c(c1)B(O)OC2)c1ccccn1 [Compound 10]" observed="250 µM"
molecule="O=C(Nc1ccc2c(c1)B(O)OC2)c1cnccn1 [Compound 1]" observed="500 µM"
molecule="O=C(Nc1ccc2c(c1)B(O)OC2)c1ccc(Cl)s1 [Compound 15]" observed="500 µM"
molecule="O=C(Nc1ccc2c(c1)B(O)OC2)c1ncc[nH]c1=O [Compound 8]" observed="125 µM"
molecule="O=C(Nc1ccc2c(c1)B(O)OC2)c1ccc(Cl)cc1 [Compound 14]" observed="> 500 µM"
molecule="Cc1cnc(C(=O)Nc2ccc3c(c2)B(O)OC3)cn1 [Compound 2]" observed="> 500 µM"
molecule="O=C(Nc1ccc2c(c1)B(O)OC2)c1cncc(Cl)n1 [Compound 4]" observed="250 µM"
molecule="O=C(Nc1ccc2c(c1)B(O)OC2)c1cnc(O)cn1 [Compound 9]" observed="> 500 µM"
molecule="Nc1ncc(Cl)nc1C(=O)Nc1ccc2c(c1)B(O)OC2 [Compound 7]" observed="> 125 µM"
molecule="Nc1nccnc1C(=O)Nc1ccc2c(c1)B(O)OC2 [Compound 6]" observed="> 500 µM"
molecule="O=C(Nc1ccc2c(c1)B(O)OC2)c1ccc(O)nc1 [Compound 13]" observed="> 500 µM"
molecule="O=C(Nc1ccc2c(c1)B(O)OC2)c1nc2ccccc2[nH]c1=O [Compound 18]" observed="> 500 µM"
molecule="O=C(Nc1ccc2c(c1)B(O)OC2)c1ccc(C(F)(F)F)cn1 [Compound 11]" observed="> 125 µM"
molecule="O=C(Nc1ccc2c(c1)B(O)OC2)c1cnc(Cl)cn1 [Compound 5]" observed="> 500 µM"
molecule="Cc1nccnc1C(=O)Nc1ccc2c(c1)B(O)OC2 [Compound 3]" observed="> 500 µM"

---

# Test system: Mycolicibacterium smegmatis DSM 43,465 (ATCC 607)
# protocol text: Antimycobacterial microdilution (resazurin) vs M. smegmatis
# Assay type: cell-based
# run conditions: Middlebrook 7H9, resazurin, read-out: MIC M. smeg.
observed property: MIC (µM)

compound=Cc1cnc(C(=O)Nc2ccc3c(c2)B(O)OC3)cn1 target_or_system="Mycolicibacterium smegmatis DSM 43,465 (ATCC 607)" observed=29
compound="O=C(O)c1cn(C2CC2)c2cc(N3CCNCC3)c(F)cc2c1=O [CIP, ciprofloxacin, reference compound]" target_or_system="Mycolicibacterium smegmatis DSM 43,465 (ATCC 607)" observed=0.19
compound=Cc1nccnc1C(=O)Nc1ccc2c(c1)B(O)OC2 target_or_system="Mycolicibacterium smegmatis DSM 43,465 (ATCC 607)" observed=14.5
compound=O=C(Nc1ccc2c(c1)B(O)OC2)c1ccc(Cl)s1 target_or_system="Mycolicibacterium smegmatis DSM 43,465 (ATCC 607)" observed=852

---

# System: Mycobacterium tuberculosis H37Rv CNCTC My 331/88 (ATCC 27294)
# protocol text: Microplate Alamar Blue assay vs Mtb H37Rv
# Format: cell-based
# run conditions: Mycobacterium tuberculosis, pH 6.6, MABA, Middlebrook 7H9 pH 6.6, recalculated from µg/mL; read-out: MIC Mtb H37Rv
Below is a list of entries, each paired with its recorded MIC value.
observed property: MIC

compound="O=C(Nc1ccc2c(c1)B(O)OC2)c1cncc(Cl)n1 [Compound 4]" observed="86.4 µM"
compound="Nc1nccnc1C(=O)Nc1ccc2c(c1)B(O)OC2 [Compound 6]" observed="> 370 µM"
compound="Cc1cnc(C(=O)Nc2ccc3c(c2)B(O)OC3)cn1 [Compound 2]" observed="46.5 µM"
compound="CC[C@@H](CO)NCCN[C@@H](CC)CO [EMB, ethambutol]" observed="1.91 µM"
compound="O=C(Nc1ccc2c(c1)B(O)OC2)c1cnc(O)cn1 [Compound 9]" observed="184 µM"
compound="O=C(Nc1ccc2c(c1)B(O)OC2)c1ccc(O)nc1 [Compound 13]" observed="> 370 µM"
compound="O=C(Nc1ccc2c(c1)B(O)OC2)c1ccc(C(F)(F)F)cn1 [Compound 11]" observed="9.72 µM"
compound="O=C(Nc1ccc2c(c1)B(O)OC2)c1cnc(Cl)cn1 [Compound 5]" observed="21.6 µM"
compound="O=C(Nc1ccc2c(c1)B(O)OC2)c1ccc2ccccc2n1 [Compound 19]" observed="82.2 µM"
compound="O=C(Nc1ccc2c(c1)B(O)OC2)c1ncc[nH]c1=O [Compound 8]" observed="92.2 µM"

---

Below is a list of entries, each paired with its recorded MIC value.
# System: Mycolicibacterium smegmatis DSM 43,465 (ATCC 607)
# protocol text: Antimycobacterial microdilution (resazurin) vs M. smegmatis
# Assay type: cell-based
# run conditions: Middlebrook 7H9, resazurin, read-out: MIC M. smeg.
observed property: MIC (µM)

molecule=O=C(Nc1ccc2c(c1)B(O)OC2)c1cnc(Cl)cn1 observed_property=MIC comparison_sign== observed=54
molecule="CO[C@H]1/C=C/O[C@@]2(C)Oc3c(C)c(O)c4c(O)c(c(/C=N/N5CCN(C)CC5)c(O)c4c3C2=O)NC(=O)/C(C)=C\\C=C\\[C@H](C)[C@H](O)[C@@H](C)[C@@H](O)[C@@H](C)[C@H](OC(C)=O)[C@@H]1C [RIF, rifampicin, reference compound]" observed_property=MIC comparison_sign== observed=15.2
molecule=O=C(Nc1ccc2c(c1)B(O)OC2)c1ccc(Cl)cc1 observed_property=MIC comparison_sign== observed=217
molecule="NNC(=O)c1ccncc1 [INH, isoniazid, reference compound]" observed_property=MIC comparison_sign== observed=228
molecule=O=C(Nc1ccc2c(c1)B(O)OC2)c1ccc(C(F)(F)F)nc1 observed_property=MIC comparison_sign== observed=24.2
molecule=O=C(Nc1ccc2c(c1)B(O)OC2)c1ccc2ccccc2n1 observed_property=MIC comparison_sign== observed=25.7
molecule=O=C(Nc1ccc2c(c1)B(O)OC2)c1ccc(C(F)(F)F)cn1 observed_property=MIC comparison_sign== observed=24.2
molecule=O=C(Nc1ccc2c(c1)B(O)OC2)c1ccccn1 observed_property=MIC comparison_sign=< observed=62

---

observed property: melting point

structure_notation=Nc1ncc(Cl)nc1C(=O)Nc1ccc2c(c1)B(O)OC2 observed_property="melting point" observed="242.9 to 244.4 °C"
structure_notation=O=C(Nc1ccc2c(c1)B(O)OC2)c1ccc(C(F)(F)F)cn1 observed_property="melting point" observed="188.1 to 188.9 °C"
structure_notation=Cc1nccnc1C(=O)Nc1ccc2c(c1)B(O)OC2 observed_property="melting point" observed="262.9 to 264 °C"
structure_notation=O=C(Nc1ccc2c(c1)B(O)OC2)c1ccc(Cl)cc1 observed_property="melting point" observed="225.5 to 228.1 °C"
structure_notation=Cc1cnc(C(=O)Nc2ccc3c(c2)B(O)OC3)cn1 observed_property="melting point" observed="215 to 216.1 °C"
structure_notation=O=C(Nc1ccc2c(c1)B(O)OC2)c1ccc(C(F)(F)F)nc1 observed_property="melting point" observed="227.3 to 229.4 °C"
structure_notation=O=C(Nc1ccc2c(c1)B(O)OC2)c1ccc2ccccc2n1 observed_property="melting point" observed="201 to 203.1 °C"
structure_notation=O=C(Nc1ccc2c(c1)B(O)OC2)c1ccc(O)nc1 observed_property="melting point" observed="304.8 to 306.9 °C"
structure_notation=Nc1nccnc1C(=O)Nc1ccc2c(c1)B(O)OC2 observed_property="melting point" observed="246.6 to 249.4 °C"
structure_notation=O=C(Nc1ccc2c(c1)B(O)OC2)c1cnc(O)cn1 observed_property="melting point" observed="338.3 to 340.1 °C"
structure_notation=O=C(Nc1ccc2c(c1)B(O)OC2)c1cncc(Cl)n1 observed_property="melting point" observed="250.9 to 252.4 °C"
structure_notation=O=C(Nc1ccc2c(c1)B(O)OC2)c1ccc(Cl)s1 observed_property="melting point" observed="234.9 to 237.1 °C"
structure_notation=O=C(Nc1ccc2c(c1)B(O)OC2)c1nc2ccccc2[nH]c1=O observed_property="melting point" observed="348.9 to 350.2 °C (dec.)"
structure_notation=O=C(Nc1ccc2c(c1)B(O)OC2)c1ccccn1 observed_property="melting point" observed="183.7 to 186.1 °C"
structure_notation=O=C(Nc1ccc2c(c1)B(O)OC2)c1cnc(Cl)cn1 observed_property="melting point" observed="233.8 to 235.3 °C"
structure_notation=O=C(Nc1ccc2c(c1)B(O)OC2)c1ncc[nH]c1=O observed_property="melting point" observed="326.4 to 328.3 °C (dec.)"
structure_notation=O=C(Nc1ccc2c(c1)B(O)OC2)c1cnccn1 observed_property="melting point" observed="261.3 to 262.3 °C"
structure_notation=O=C(Nc1ccc2c(c1)B(O)OC2)c1cscn1 observed_property="melting point" observed="225.7 to 227.9 °C"
